# tested.target: Recombinant STAT6 protein (STAT6(W123-T658)) (Homo sapiens)
# Construct: Recombinant STAT6 protein (STAT6(W123-T658))
# Sequence (P42226 123-658): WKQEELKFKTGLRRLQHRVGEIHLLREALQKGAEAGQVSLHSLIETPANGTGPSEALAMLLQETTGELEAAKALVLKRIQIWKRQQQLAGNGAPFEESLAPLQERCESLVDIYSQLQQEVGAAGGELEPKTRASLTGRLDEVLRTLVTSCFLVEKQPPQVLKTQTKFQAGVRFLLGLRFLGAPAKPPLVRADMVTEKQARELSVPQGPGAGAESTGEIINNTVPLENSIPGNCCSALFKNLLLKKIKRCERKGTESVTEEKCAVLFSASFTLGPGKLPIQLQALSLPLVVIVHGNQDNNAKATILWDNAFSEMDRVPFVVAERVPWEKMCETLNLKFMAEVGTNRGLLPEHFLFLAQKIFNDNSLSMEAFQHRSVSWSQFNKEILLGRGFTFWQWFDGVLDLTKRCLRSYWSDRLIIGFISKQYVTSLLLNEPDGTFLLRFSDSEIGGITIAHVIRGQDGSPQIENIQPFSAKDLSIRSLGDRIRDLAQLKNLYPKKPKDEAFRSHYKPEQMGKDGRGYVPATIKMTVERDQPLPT
# assay.text: STAT6 Fluorescence Polarization (FP) Assay
# assay.context: STAT6(W123-T658) 250 nM, probe 5-FAM-ApYKPFQDLI-NH2 2 nM, 45-minute incubation
pIC50: −log10 of the molar value.
# pIC50 annotations

compound | pIC50
Cc1ccc2onc(C(=O)N3CC[C@H]4CC[C@@H](C(=O)N5C[C@H](c6cc[nH]c(=O)c6)CC56CC6)N4C(=O)[C@@H](NC(=O)c4ccc5ccc(C(F)(F)P(=O)(O)O)cc5c4)C3)c2c1 | ≥ 6.52
CC(=O)N1CC[C@H]2CC[C@@H](C(=O)N3CC[C@@H](C(=O)N4CCCCC4)C3)N2C(=O)[C@@H](NC(=O)c2cc3cc(C(F)(F)P(=O)(O)O)ccc3s2)C1 | 5.52 to 6.52
CC(=O)N[C@H]1CCC[C@@H]1NC(=O)[C@@H]1CC[C@@H]2CCN(C(C)=O)C[C@H](NC(=O)c3cc4cc(C(F)(F)P(=O)(O)O)ccc4[nH]3)C(=O)N21 | 4.52 to 5.52
CC(=O)N1CC[C@H]2CC[C@@H](C(=O)N(C)c3ccccc3)N2C(=O)[C@@H](NC(=O)c2cc3cc(C(F)(F)P(=O)(O)O)ccc3s2)C1 | 5.52 to 6.52
CC(=O)N1CC[C@H]2CC[C@@H](C(=O)Nc3ccc4cn(C)nc4c3)N2C(=O)[C@@H](NC(=O)c2cc3cc(C(F)(F)P(=O)(O)O)ccc3s2)C1 | 5.52 to 6.52
CC(=O)N1CC[C@H]2CC[C@@H](C(=O)N3CCCc4ccccc43)N2C(=O)[C@@H](NC(=O)c2cc3cc(C(F)(F)P(=O)(O)O)ccc3[nH]2)C1 | 5.52 to 6.52
CCC(=O)N1CC[C@@H](NC(=O)[C@@H]2CC[C@@H]3CCN(C(C)=O)C[C@H](NC(=O)c4cc5cc(C(F)(F)P(=O)(O)O)ccc5[nH]4)C(=O)N32)C1 | 5.52 to 6.52
CC(=O)N1CC[C@H]2CC[C@@H](C(=O)N3C[C@H](C#N)C[C@@H]3c3ccccc3)N2C(=O)[C@@H](NC(=O)c2cc3cc(C(F)(F)P(=O)(O)O)ccc3s2)C1 (relative stereo) | 5.52 to 6.52
CC(=O)N1CC[C@H]2CC[C@@H](C(=O)N3CCN(C4CC4)C(C#N)C3)N2C(=O)[C@@H](NC(=O)c2cc3cc(C(F)(F)P(=O)(O)O)ccc3s2)C1 (stereo partly shown) | 5.52 to 6.52
O=C(N[C@H]1CN(C(=O)c2noc3ccc(Cl)cc23)CC[C@H]2CC[C@@H](C(=O)N3CCOCC3)N2C1=O)c1ccc2ccc(C(F)P(=O)(O)O)cc2c1 (stereo partly shown) | ≥ 6.52
